- system_tested: Insulin-degrading enzyme (Homo sapiens) (UniProt P14735)
- Sequence (P14735 whole entry, looked up): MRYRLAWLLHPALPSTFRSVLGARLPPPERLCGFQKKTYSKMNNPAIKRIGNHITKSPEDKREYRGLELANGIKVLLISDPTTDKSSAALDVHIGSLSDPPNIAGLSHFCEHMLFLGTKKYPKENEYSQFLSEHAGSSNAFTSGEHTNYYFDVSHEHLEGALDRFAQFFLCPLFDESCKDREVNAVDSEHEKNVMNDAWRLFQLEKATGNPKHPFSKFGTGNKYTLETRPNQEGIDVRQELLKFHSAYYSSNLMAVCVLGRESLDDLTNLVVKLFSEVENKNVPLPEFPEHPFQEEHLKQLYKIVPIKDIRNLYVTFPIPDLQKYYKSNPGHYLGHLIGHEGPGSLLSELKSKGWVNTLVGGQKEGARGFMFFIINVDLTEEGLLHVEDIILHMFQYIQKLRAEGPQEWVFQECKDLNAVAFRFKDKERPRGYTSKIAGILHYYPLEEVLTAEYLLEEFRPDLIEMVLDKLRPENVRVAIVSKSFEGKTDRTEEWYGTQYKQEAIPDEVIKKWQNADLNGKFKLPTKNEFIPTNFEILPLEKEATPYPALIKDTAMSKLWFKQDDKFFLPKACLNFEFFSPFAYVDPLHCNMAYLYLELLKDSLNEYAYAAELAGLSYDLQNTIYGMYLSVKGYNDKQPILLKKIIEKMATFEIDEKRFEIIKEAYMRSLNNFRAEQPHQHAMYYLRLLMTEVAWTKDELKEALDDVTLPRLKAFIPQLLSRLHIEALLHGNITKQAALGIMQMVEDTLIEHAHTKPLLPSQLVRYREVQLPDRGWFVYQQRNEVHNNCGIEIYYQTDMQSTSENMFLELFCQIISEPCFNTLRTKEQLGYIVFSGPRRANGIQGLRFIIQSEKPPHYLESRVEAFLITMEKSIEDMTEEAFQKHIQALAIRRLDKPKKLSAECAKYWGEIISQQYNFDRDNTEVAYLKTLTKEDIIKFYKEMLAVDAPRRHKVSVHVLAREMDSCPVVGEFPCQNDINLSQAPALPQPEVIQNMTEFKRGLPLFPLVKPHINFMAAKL
- assay_overview: fluorescent artefact check on IDE activity – biochemical, fluorogenic FRET1 peptide, fluorescence, powder samples, artefact control for IDE inhibitor project, late-stage follow-up (AID 624066)
- condition_info: recombinant IDE
Calls of active or inactive are those of the source.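 Rule for the calls: active = IC50 of 10 µM or lower; inactive = IC50 above 10 µM.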
Answer with one of the outcomes given here: active, inactive

Please review the following examples before continuing.
{"columns": ["molecule", "qualitative_label"],
 "data": [
  ["O=C(c1ccc2c(c1)OCO2)N1CCN(C(=O)C2CCc3ccccc3O2)CC1 (stereo unspecified)", "inactive"],
  ["O=C(c1ccc2c(c1)OCCO2)N1CCN(C(=O)C2COc3ccccc3O2)CC1 (stereo unspecified)", "inactive"],
  ["COc1ccc(C(=O)N2CCCN(C(=O)C3COc4ccccc4O3)CC2)cc1OC (stereo unspecified)", "inactive"],
  ["O=C(c1ccc2c(c1)OCO2)N1CCCN(C(=O)C2COc3ccccc3C2)CC1 (stereo unspecified)", "inactive"],
  ["O=C(c1ccc2c(c1)OCO2)N1CCN(C(=O)C2COc3ccccc3O2)CC1 (stereo unspecified)", "inactive"]
]}

Alright, here's another molecule for you.
Problem: Record lookup: outcome of this test for O=C(O)c1ccccc1NS(=O)(=O)c1cccc(-n2sc3ccccc3c2=O)c1 ?
Result: active

====

- system_tested: Insulin-degrading enzyme (Homo sapiens) (UniProt P14735)
- assay_overview: fluorescent artefact check on IDE activity – biochemical, fluorogenic FRET1 peptide, fluorescence, powder samples, artefact control for IDE inhibitor project, late-stage follow-up (AID 624066)
- condition_info: recombinant IDE
Calls of active or inactive are those of the source.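 Rule for the calls: active = IC50 of 10 µM or lower; inactive = IC50 above 10 µM.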
Answer with one of the outcomes given here: active, inactive

{"columns": ["molecule", "system_tested", "qualitative_label"],
 "data": [
  ["CCOc1ccc2[nH]c3c(N4CCN(C(=O)c5ccco5)CC4)ncnc3c2c1", "Insulin-degrading enzyme (Homo sapiens) (UniProt P14735)", "inactive"],
  ["CCN(CC)c1ccc(/C=C2\\C(=N)N3N=C(CC(=O)N4CCOCC4)SC3=NC2=O)cc1", "Insulin-degrading enzyme (Homo sapiens) (UniProt P14735)", "inactive"],
  ["O=C(CSc1nnc(-c2cccc(Cl)c2)n1Cc1ccco1)c1ccc2ccccc2c1", "Insulin-degrading enzyme (Homo sapiens) (UniProt P14735)", "inactive"],
  ["COc1ccc(C(=O)N2CCCN(C(=O)C3CCc4ccccc4O3)CC2)cc1OC (stereo not drawn)", "Insulin-degrading enzyme (Homo sapiens) (UniProt P14735)", "inactive"],
  ["O=C(Nc1cccc(C(F)(F)F)c1)c1csc(-c2ccccc2)n1", "Insulin-degrading enzyme (Homo sapiens) (UniProt P14735)", "inactive"]
]}

Alright, here's another molecule for you.
Problem: Record lookup: outcome of this test for O=C(Nc1cccc(C(F)(F)F)c1)c1csc(Cc2cccc(C(F)(F)F)c2)n1 ?
Result: inactive

====

- system_tested: Insulin-degrading enzyme (Homo sapiens)
- assay_overview: fluorescent artefact check on IDE activity – biochemical, fluorogenic FRET1 peptide, fluorescence, powder samples, artefact control for IDE inhibitor project, late-stage follow-up (AID 624066)
- condition_info: recombinant IDE
Calls of active or inactive are those of the source.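 Rule for the calls: active = IC50 of 10 µM or lower; inactive = IC50 above 10 µM.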
Catalogue of compounds with associated IC50

Past entries and their recorded results:
{"columns": ["compound", "property", "measured"],
 "data": [
  ["O=C(Nc1cccc(C(F)(F)F)c1)c1csc(-c2cccc(C(F)(F)F)c2)n1", "IC50", "> 100 µM (inactive)"],
  ["O=C(c1ccc2c(c1)OCO2)N1CCN(C(=O)C2COc3ccccc3C2)CC1 (configuration not stated)", "IC50", "> 10 µM (inactive)"],
  ["O=C(c1ccc2c(c1)OCCO2)N1CCCN(C(=O)C2COc3ccccc3C2)CC1 (configuration not stated)", "IC50", "> 10 µM (inactive)"],
  ["O=C(Nc1cc(C(F)(F)F)cc(C(F)(F)F)c1)c1csc(-c2ccncc2)n1", "IC50", "> 100 µM (inactive)"],
  ["Cn1c(=O)c(C(=O)CN2CCCc3ccccc32)c(N)n(Cc2ccccc2)c1=O", "IC50", "0.4 µM"],
  ["Nc1c(C(=O)Nc2nccs2)sc2nc(-c3cccs3)cc(C(F)(F)F)c12", "IC50", "> 100 µM (inactive)"]
]}

Continue with the compound presented below.
Problem: What IC50 value was documented for this compound, O=c1c2ccccc2sn1-c1cc(S(=O)(=O)N2CCOCC2)ccc1N1CCOCC1 ?
Result: 0.2 µM
